target: GRK7 (human) (UniProt Q8WTQ7); assay: radiometric filter-binding kinase assay, Kinase HotSpot; conditions: compound 0.5 µM; ATP 10 µM
Sequence (Q8WTQ7 whole entry, looked up): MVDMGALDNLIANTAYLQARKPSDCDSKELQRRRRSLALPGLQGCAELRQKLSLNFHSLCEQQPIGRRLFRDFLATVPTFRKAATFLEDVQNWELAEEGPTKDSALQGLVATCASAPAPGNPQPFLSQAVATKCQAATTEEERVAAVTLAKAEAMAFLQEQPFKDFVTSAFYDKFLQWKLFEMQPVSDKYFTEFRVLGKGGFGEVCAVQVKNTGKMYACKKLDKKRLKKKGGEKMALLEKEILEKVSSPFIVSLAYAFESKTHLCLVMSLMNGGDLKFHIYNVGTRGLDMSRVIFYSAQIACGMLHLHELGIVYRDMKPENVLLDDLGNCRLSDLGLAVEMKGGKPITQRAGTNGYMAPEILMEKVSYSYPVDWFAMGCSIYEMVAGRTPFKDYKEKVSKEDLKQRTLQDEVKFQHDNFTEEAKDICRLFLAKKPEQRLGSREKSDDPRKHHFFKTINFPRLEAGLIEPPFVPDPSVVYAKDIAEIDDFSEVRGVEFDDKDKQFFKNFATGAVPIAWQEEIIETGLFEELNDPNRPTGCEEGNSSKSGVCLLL
A collection of molecules and their measured residual activity
Answer format: numeric, % implied, no suffix.

COc1cc2ncnc(Nc3ccc(Oc4ccccc4)cc3)c2cc1OC : 103
CCCCc1c(-c2ccc(OC)cc2)[nH]c2nccnc12 : 94.1
Fc1ccc(-c2nc3n(c2-c2ccncc2)CCS3)cc1 : 104
COc1ccc(Cl)cc1NC(=O)Nc1cc(C)nc2ccccc12 : 101

So what's the measured residual activity for this one? CC(C)(C)c1cc(C=C(C#N)C#N)cc(Br)c1O
107

Look at this molecule and give its reported residual activity. Cn1c2ccccc2c2c3c(c4c5ccccc5n(CCC#N)c4c21)CNC3=O
37.9

Which measured residual activity value corresponds to Cc1cccc(-c2nc(C(C)(C)C)[nH]c2-c2ccc3c(c2)OCO3)n1 ?
103

# residual activity lookup, item c1ccc2c(-c3ccncc3)c[nH]c2c1
98.4

What does the record list as residual activity for O=C(c1cc2cc(O)ccc2[nH]1)c1cc2cc(O)ccc2[nH]1 ?
99.8

Param item = CN(C)CCCn1cc(C2=C(c3c[nH]c4ccccc34)C(=O)NC2=O)c2ccccc21 ; retrieve measured residual activity.
60.4

What value of measured residual activity is listed for COc1ccc2c(c1)c(C1=C(c3c[nH]c4ccccc34)C(=O)NC1=O)cn2CCCN(C)C ?
106

---

biological target: FGR (human) (UniProt P09769); assay: radiometric filter-binding kinase assay, Kinase HotSpot; conditions: compound 0.5 µM; ATP 10 µM
Sequence (P09769 whole entry, looked up): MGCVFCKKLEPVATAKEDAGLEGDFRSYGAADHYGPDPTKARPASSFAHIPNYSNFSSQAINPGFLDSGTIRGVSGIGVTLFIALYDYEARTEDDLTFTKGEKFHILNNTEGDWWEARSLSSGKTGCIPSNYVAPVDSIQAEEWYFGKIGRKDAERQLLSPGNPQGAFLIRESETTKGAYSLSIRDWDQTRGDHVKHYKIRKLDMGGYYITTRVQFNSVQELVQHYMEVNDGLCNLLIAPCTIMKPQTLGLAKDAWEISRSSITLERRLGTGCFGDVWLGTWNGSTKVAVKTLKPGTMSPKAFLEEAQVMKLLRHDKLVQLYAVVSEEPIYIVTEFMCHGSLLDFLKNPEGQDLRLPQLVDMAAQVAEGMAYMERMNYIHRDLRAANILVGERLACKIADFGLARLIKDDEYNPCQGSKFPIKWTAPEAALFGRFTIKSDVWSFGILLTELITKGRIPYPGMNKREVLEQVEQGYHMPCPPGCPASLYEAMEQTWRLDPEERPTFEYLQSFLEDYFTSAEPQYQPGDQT
Result type: residual activity (%)
Give just the number in %; leave the unit off.

Cc1nc(-c2ccccc2)c(-c2ccncc2)o1 : 89.7
Cc1cncc2cccc(S(=O)(=O)N3CCCN(C(=O)CN)C[C@H]3C)c12 : 94.1

Tell me the measured residual activity of O=C1C(Cl)=C(N2C(=O)CCC2=O)C(=O)c2ccccc21 , please.
102

// returns reported residual activity for input COc1ccc2c(c1)c(C1=C(c3c[nH]c4ccccc34)C(=O)NC1=O)cn2CCCN(C)C
107

Can you share its residual activity? I mean this molecule: N#Cc1c[nH]c2c[nH]/c(=N\Cc3cccnc3)cc2/c1=N\c1ccc(F)c(Cl)c1
84.5

Look up residual activity for this molecule: COc1cc(Nc2c(C#N)cnc3cc(OCCCN4CCN(C)CC4)c(OC)cc23)c(Cl)cc1Cl
11.5

Sample O=C1Nc2ccc(Br)cc2/C1=C\c1cc2c([nH]1)CCCC2 — what was its residual activity?
67.7

Recorded residual activity for O=C(c1cc2cc(O)ccc2[nH]1)c1cc2cc(O)ccc2[nH]1 , please?
12.7

Returns the measured residual activity for the input molecule. Input: COc1ccc(C(=O)Nc2sc3c(c2C(N)=O)CCCC3)cc1OC
90

---

target: CDK7 CCNH MNAT1 (human) (UniProt P50613+P51948+P51946); experiment: radiometric filter-binding kinase assay, Kinase HotSpot; details: compound 0.5 µM; ATP 10 µM
Sequence (P50613 whole entry, looked up): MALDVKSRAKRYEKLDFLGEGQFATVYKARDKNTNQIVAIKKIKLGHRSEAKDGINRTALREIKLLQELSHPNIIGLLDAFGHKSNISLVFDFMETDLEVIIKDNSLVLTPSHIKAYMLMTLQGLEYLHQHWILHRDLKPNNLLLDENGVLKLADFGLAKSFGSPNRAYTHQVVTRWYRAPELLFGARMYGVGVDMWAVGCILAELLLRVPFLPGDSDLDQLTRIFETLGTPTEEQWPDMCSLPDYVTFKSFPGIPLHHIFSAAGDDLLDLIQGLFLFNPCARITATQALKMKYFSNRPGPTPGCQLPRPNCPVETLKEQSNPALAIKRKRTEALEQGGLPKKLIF
Sequence (P51946 whole entry, looked up): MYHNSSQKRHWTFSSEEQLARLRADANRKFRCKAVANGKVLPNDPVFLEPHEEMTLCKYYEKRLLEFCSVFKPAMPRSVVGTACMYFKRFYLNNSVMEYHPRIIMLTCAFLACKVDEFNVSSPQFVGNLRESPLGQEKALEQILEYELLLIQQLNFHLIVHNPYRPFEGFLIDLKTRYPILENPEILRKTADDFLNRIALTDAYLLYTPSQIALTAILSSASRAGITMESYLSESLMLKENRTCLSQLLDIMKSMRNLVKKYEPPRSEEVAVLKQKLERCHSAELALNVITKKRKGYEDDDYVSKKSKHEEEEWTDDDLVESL
Sequence (P51948 whole entry, looked up): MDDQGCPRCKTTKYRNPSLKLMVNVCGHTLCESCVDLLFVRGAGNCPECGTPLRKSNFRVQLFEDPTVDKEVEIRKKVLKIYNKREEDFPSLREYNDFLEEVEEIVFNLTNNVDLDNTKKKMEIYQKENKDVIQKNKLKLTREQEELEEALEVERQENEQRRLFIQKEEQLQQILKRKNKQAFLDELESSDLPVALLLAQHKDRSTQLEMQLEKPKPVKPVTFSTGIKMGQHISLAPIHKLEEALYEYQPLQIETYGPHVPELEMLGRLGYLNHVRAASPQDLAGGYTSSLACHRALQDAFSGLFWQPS
residual activity listing for selected compounds.
Could you give me the number in %? Just the number is fine.

Some compounds with known residual activity results, for comparison:
COc1ccc2c(c1)c(C1=C(c3c[nH]c4ccccc34)C(=O)NC1=O)cn2CCCN(C)C : 88
N#C/C(=C\c1ccc(O)c(O)c1)C(=O)NCc1ccccc1 : 120
CN(C)c1ccc(/C=C2\C(=O)Nc3ccccc32)cc1 : 99.4
O=C1c2ccccc2-c2n[nH]c3cccc1c23 : 94.7
COc1ccc(Cl)cc1NC(=O)Nc1cc(C)nc2ccccc12 : 101

Consider the additional compound presented here.
# get_value(readout='residual activity', item= COc1ccc(S(=O)(=O)N(CCO)c2ccccc2CN(C)C/C=C/c2ccc(Cl)cc2)cc1 )
97.6
